Every entry's value here was drawn from the supplement of paper PMC10567573.

B1: ZNF263 (parent)
chain: VPGTQVGQGGKLWDPSVQSCKEGL

# Variants of: B1
# assay.procedure: protein stability index of a GFP-peptide fusion (GPS, HEK-293T) (PSI 1-6); higher = more stable;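 further: lentivirally expressed fusions sorted by FACS into six bins by GFP to DsRed ratio, PSI derived from sequencing read proportions per bin multiplied by bin number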
# run.parameters: c terminus: a fixed tail appended
Classify by measured protein stability index: rule met if it is equal to or exceeds 4, rule not met if it is smaller.

mutant.code	group.label
C20M	rule met
S16L	rule not met
Q8C	rule not met
